Tested on: neurons isolated from the cerebrum
experiment_notes: Veratrine-induced neuronal death suppressing action (MTT)
Assay type: cell-based, embryonic day 16 rats
experimental_conditions: Rattus norvegicus, Neuron; veratrine 0.35 mM; MTT after 24 h; probit method; read-out: IC50 (50% suppression of veratrine-induced neuronal death)
Parameter: IC50. Scope: all listed entries.

>>> result("COC(=O)C1CCN(C2CCc3c(-c4ccccc4)[nH]c4cccc2c34)CC1.Cl (stereo not drawn)")
"2.2 µg/mL"
>>> result("NC1CCc2c(-c3ccccc3)[nH]c3ccc(O)c1c23 (stereo not drawn)")
"3.4 µg/mL"
>>> result("COC(=O)c1ccc(-c2[nH]c3c(Cl)ccc4c3c2CCC4N)cc1 (stereo not drawn)")
"1.9 µg/mL"
>>> result("NC1CCc2c(-c3ccccc3)[nH]c3cccc1c23 (stereo not drawn)")
"3.2 µg/mL"
>>> result("Cn1c(-c2ccccc2)c2c3c(cccc31)C(N)CC2 (stereo not drawn)")
"0.33 µg/mL"
>>> result("COc1ccc2[nH]c(-c3ccccc3)c3c2c1C(N)CC3 (stereo not drawn)")
"1.8 µg/mL"
>>> result("CCCN(CCC)C1CCc2c(-c3ccccc3)[nH]c3cccc1c23 (stereo not drawn)")
"1.2 µg/mL"
>>> result("NC1CCc2c(-c3ccc(F)cc3)[nH]c3cccc1c23 (stereo not drawn)")
"3.1 µg/mL"

Now turn to the next molecule.
Name the reported IC50 value associated with the molecule Cl.Cn1c(-c2ccccc2Cl)c2c3c(cccc31)C(N1CCOCC1)CC2 (stereo not drawn)
2.2 µg/mL
